# subject-of-test: E. coli OGDHc E1 (Escherichia coli, UniProt P0AFG3)
# Sequence (P0AFG3 whole entry): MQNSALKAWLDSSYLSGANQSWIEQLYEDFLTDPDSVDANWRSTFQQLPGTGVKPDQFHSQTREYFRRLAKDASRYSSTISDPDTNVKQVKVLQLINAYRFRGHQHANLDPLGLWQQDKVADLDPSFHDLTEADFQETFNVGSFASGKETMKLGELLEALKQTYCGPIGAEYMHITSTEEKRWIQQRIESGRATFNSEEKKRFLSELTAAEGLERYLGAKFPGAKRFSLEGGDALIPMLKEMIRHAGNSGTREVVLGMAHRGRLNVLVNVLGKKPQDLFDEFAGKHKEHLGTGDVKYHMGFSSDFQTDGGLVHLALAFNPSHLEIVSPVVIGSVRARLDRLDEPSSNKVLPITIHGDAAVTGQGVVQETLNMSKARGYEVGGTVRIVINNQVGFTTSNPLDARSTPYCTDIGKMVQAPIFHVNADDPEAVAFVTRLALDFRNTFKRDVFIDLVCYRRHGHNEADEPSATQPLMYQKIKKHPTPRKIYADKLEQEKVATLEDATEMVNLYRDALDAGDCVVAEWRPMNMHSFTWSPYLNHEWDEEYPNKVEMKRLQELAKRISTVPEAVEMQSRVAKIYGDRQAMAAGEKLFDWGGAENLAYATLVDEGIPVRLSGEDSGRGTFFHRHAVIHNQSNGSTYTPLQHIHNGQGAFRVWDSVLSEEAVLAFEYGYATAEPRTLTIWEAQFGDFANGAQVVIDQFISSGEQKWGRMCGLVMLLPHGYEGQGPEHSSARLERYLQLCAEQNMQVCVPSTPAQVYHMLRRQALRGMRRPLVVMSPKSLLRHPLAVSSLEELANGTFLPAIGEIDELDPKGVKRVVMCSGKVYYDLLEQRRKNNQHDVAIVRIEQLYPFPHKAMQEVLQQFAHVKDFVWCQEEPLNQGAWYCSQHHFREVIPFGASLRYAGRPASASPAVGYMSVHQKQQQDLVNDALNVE
endpoint-label: IC50 (µM)
Report as a plain number; the unit µM is understood.

Output measured IC50 for this item: Cc1ncc(Cn2cc(CCCC(=O)NO)nn2)c(N)n1 [Compound 24b] 20

Attention now shifts to the item below.
Output measured IC50 for this item: Cc1ncc(Cn2cc(CCCCC(=O)NO)nn2)c(N)n1 [Compound 24c] 15

* * *

# subject-of-test: porcine PDHc E1 (Sus scrofa, UniProt P29804)
# Sequence (P29804 31-390): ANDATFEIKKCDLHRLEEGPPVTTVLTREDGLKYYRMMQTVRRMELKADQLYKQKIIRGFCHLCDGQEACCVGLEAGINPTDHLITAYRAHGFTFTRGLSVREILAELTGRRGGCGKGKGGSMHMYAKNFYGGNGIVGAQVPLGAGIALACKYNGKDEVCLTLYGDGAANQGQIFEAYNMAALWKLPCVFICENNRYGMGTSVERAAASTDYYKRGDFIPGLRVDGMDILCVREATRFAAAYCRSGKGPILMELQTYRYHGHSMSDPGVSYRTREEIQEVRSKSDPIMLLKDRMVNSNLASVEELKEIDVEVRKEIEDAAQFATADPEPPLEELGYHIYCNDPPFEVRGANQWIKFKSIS
# test-description: PDHc E1 inhibitory activity assay (DCPIP reduction)
# Type: biochemical
# measurement-setup: [Compound] = 250 μM, [ThDP] = 50 μM
endpoint-label: Inhibition (%) PDHc E1
Report as a plain number; the unit % is understood.

Find Inhibition (%) PDHc E1 for Cc1ncc(Cn2cc(CCNC(=O)c3cccc(C#N)c3)nn2)c(N)n1 [Compound 20a] on porcine PDHc E1 (Sus scrofa, UniProt P29804) and write it down. 46

Find Inhibition (%) PDHc E1 for COc1ccccc1C(=O)NCCCCc1cn(Cc2cnc(C)nc2N)nn1 [Compound 22c] on porcine PDHc E1 (Sus scrofa, UniProt P29804) and write it down. 58

Find Inhibition (%) PDHc E1 for Cc1ncc(Cn2cc(CCCO)nn2)c(N)n1 [Compound 9b] on porcine PDHc E1 (Sus scrofa, UniProt P29804) and write it down. 52

Find Inhibition (%) PDHc E1 for Cc1ncc(Cn2cc(CCOC(=O)c3cccc(C#N)c3)nn2)c(N)n1 [Compound 14a] on porcine PDHc E1 (Sus scrofa, UniProt P29804) and write it down. 71

Find Inhibition (%) PDHc E1 for COc1ccc(-c2cn(CCCc3cn(Cc4cnc(C)nc4N)nn3)nn2)cc1 [Compound 17b] on porcine PDHc E1 (Sus scrofa, UniProt P29804) and write it down. 71

More entries:
Find Inhibition (%) PDHc E1 for Cc1ncc(Cn2cc(CCCCNS(=O)(=O)C(F)(F)F)nn2)c(N)n1 [Compound 18c] on porcine PDHc E1 (Sus scrofa, UniProt P29804) and write it down. 71

Find Inhibition (%) PDHc E1 for Cc1ncc(Cn2cc(CCO)nn2)c(N)n1 [Compound 9a] on porcine PDHc E1 (Sus scrofa, UniProt P29804) and write it down. 55

Find Inhibition (%) PDHc E1 for COc1cccc(C(=O)NCCc2cn(Cc3cnc(C)nc3N)nn2)c1 [Compound 21a] on porcine PDHc E1 (Sus scrofa, UniProt P29804) and write it down. 67

Find Inhibition (%) PDHc E1 for COc1cccc(C(=O)NCCCc2cn(Cc3cnc(C)nc3N)nn2)c1 [Compound 21b] on porcine PDHc E1 (Sus scrofa, UniProt P29804) and write it down. 61

Find Inhibition (%) PDHc E1 for COc1cccc(C(=O)NCCCCc2cn(Cc3cnc(C)nc3N)nn2)c1 [Compound 21c] on porcine PDHc E1 (Sus scrofa, UniProt P29804) and write it down. 60
